# Protocol Text: Cytotoxicity assay (LDH release), MH-S
# Type: cell-based, murine
# Stated Conditions: mouse, MH-S cells, 0-100 μM
Reported Property: IC50 at 18 h (µM)
Hi! Could you send only the number? It should be in µM, unit omitted.

query: What value of measured IC50 at 18 h is listed for CC(C)CCC[C@@H](C)[C@H]1CCC2C3C(CC[C@@]21C)[C@@]1(C)CC[C@H](O)C[C@@]1(O)[C@@H]3C=O (stereo partly shown) ?
result: 13.6

====

# Protocol Text: Cytotoxicity assay (LDH release), HAEC
# Format: cell-based
# Stated Conditions: human, human aortic endothelial cells (HAEC), 0-100 μM
Reported Property: IC50 at 18 h
Put your answer as a value accompanied by its unit after it.

query: What value of measured IC50 at 18 h is listed for CC(C)CCC[C@@H](C)[C@H]1CCC2C(CC=O)C([C@@]3(C)CC[C@H](O)CC3=O)CC[C@@]21C (stereo partly drawn) [4a, 3β-Hydroxy-5-oxo-5,6-secocholestan-6-al] ?
result: 24.6 µM
